Biological target: T1, recombinant human PCSK9 protein, His-tagged (Immunogen A, hPCSK9-His) (human, UniProt Q8NBP7 31-692, limits assumed, biotin-labelled in the ELISA and blocking assays (Biotin labeling kit))
T1 construct: also called human PCSK9-His; recombinant hPCSK9-His; not shown: His tag
Test: blocking ELISA, biotin-hPCSK9-His on coated LDLR ECD-His; antibody 0.01 nM
readoutName: OD450 nm (PCSK9 bound to LDLR) (OD450 nm)
Value expressed in OD450 nm; do not type the unit.

Req: Look up OD450 nm (PCSK9 bound to LDLR): 76A1B11, chimeric anti-PCSK9 mAb purified from hybridoma (antibody, V domains shown, From Harbour H2L2 mice: human variable regions, rat constant regions) VH: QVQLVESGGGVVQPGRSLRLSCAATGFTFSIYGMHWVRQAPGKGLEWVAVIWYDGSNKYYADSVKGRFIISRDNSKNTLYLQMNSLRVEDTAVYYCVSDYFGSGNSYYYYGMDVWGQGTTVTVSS VL: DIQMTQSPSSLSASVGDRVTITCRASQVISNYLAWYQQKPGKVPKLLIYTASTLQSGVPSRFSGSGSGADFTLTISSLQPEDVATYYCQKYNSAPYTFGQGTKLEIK
Resp: 1.29

Where do these numbers come from? They come from patent US20180355059A1.
